Just for reference, the supplement of paper PMC7877785 is where these values come from.

# PROTOCOL NOTES: self-splicing fitness, log relative to wild type (ln ratio); higher = more splicing; Tetrahymena group I intron in knt gene, E. coli kanamycin selection, DiMSum; sequences stand for … in CUCUCU…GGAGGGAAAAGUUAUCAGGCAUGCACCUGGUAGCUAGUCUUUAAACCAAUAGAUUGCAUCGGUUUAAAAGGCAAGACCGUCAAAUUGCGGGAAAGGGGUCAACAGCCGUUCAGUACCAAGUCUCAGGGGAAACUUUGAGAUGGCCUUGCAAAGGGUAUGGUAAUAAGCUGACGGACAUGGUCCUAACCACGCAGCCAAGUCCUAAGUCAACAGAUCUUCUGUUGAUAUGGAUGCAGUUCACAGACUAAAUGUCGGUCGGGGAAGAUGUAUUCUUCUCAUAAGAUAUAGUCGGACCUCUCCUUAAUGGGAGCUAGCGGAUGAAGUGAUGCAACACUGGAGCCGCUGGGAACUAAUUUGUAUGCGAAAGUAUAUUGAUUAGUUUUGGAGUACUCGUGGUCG;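 note: selection with 25 µg/mL kanamycin versus none on LB agar overnight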
# EXPERIMENTAL SETUP: 37 °C
Rule: self-splicing fitness (ln) under -2 gives false (0), otherwise true (1).

Query: Determine whether measured self-splicing fitness (ln) meets or exceeds -2 for "CGGUAGCAAUAUUACGUGAG"
Result: true (1)

Query: Determine whether measured self-splicing fitness (ln) meets or exceeds -2 for "UGUGAGCAAUAUUACGUCUG"
Result: true (1)

Query: Determine whether measured self-splicing fitness (ln) meets or exceeds -2 for "UGACAGCAAUAUUACGCGUC"
Result: false (0)

Query: Determine whether measured self-splicing fitness (ln) meets or exceeds -2 for "UCAAAGCAAUAUUACGACGG"
Result: true (1)

Query: Determine whether measured self-splicing fitness (ln) meets or exceeds -2 for "AUUGAGCAAUAUUACGUGAA"
Result: true (1)

Query: Determine whether measured self-splicing fitness (ln) meets or exceeds -2 for "UGACAGCAAUAUUACGCGGG"
Result: true (1)

* * *

Below, each entry is listed with its recorded self-splicing fitness (ln).
# PROTOCOL NOTES: self-splicing fitness, log relative to wild type (ln ratio); higher = more splicing; Tetrahymena group I intron in knt gene, E. coli kanamycin selection, DiMSum; sequences stand for … in CUCUCU…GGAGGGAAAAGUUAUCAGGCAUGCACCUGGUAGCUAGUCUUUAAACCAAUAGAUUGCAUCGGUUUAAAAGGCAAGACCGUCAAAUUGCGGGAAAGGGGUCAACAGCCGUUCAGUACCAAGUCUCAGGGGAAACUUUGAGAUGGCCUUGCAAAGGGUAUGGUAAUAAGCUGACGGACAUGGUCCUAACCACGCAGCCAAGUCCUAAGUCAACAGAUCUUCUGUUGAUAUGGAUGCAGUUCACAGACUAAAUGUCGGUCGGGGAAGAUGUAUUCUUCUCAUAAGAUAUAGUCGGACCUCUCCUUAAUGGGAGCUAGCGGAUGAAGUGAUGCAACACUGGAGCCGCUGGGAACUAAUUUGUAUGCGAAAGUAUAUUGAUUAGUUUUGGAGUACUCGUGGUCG
# EXPERIMENTAL SETUP: 37 °C
Form field (numeric): enter value without unit.

Below are worked cases with known answers.
{"columns": ["PRIMARY SEQUENCE", "ENDPOINT RESULT"],
 "data": [
  ["GCGGAGCAAUAUUACGUCUG", -2.44],
  ["AUGUAGCAAUAUUACGUCCG", -1.39],
  ["UGAGAGCAAUAUUACGGUAC", -2],
  ["UACCAGCAAUAUUACGGAAU", -1.5],
  ["ACGCAGCAAUAUUACGCCUG", -2.42],
  ["UAUCAGCAAUAUUACGCAGU", -0.577],
  ["GACUAGCAAUAUUACGGGUA", -0.669],
  ["ACGCAGCAAUAUUACGGCGU", -2.23],
  ["ACCGAGCAAUAUUACGCCGU", -1.75],
  ["AUGCAGCAAUAUUACGCCCC", -1.04]
]}

Query: Could you share which self-splicing fitness (ln) value was measured for "AACCAGCAAUAUUACGGCGA" ?
Result: 0.19

Query: Could you share which self-splicing fitness (ln) value was measured for "UAUCAGCAAUAUUACGCUAG" ?
Result: -0.149

Query: Could you share which self-splicing fitness (ln) value was measured for "GACAAGCAAUAUUACGAGCC" ?
Result: -0.366

Query: Could you share which self-splicing fitness (ln) value was measured for "GGAAAGCAAUAUUACGUUGA" ?
Result: -1.27

* * *

# PROTOCOL NOTES: self-splicing fitness, log relative to wild type (ln ratio); higher = more splicing; Tetrahymena group I intron in knt gene, E. coli kanamycin selection, DiMSum; sequences stand for … in CUCUCU…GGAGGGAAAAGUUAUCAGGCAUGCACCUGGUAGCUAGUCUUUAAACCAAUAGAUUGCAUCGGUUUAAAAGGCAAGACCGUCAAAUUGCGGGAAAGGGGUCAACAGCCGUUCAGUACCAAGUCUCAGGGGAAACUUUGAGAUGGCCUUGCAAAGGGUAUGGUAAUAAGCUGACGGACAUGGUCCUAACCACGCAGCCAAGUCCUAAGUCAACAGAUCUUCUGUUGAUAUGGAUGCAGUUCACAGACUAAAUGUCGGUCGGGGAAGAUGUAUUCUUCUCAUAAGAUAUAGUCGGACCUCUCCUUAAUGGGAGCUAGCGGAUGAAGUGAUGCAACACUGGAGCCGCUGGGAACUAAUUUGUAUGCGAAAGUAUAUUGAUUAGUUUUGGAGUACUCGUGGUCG
# EXPERIMENTAL SETUP: 30 °C
Below, each entry is listed with its recorded self-splicing fitness (ln).
Form field (numeric): enter value without unit.

Below are worked cases with known answers.
{"columns": ["PRIMARY SEQUENCE", "ENDPOINT RESULT"],
 "data": [
  ["UACAAGCAAUAUUACGCCAU", -3.15],
  ["AGAUAGCAAUAUUACGUCCG", 0.235],
  ["GCAAAGCAAUAUUACGCAAA", -1.95],
  ["CUGGAGCAAUAUUACGGAGA", -3.11],
  ["GUUUAGCAAUAUUACGCCUC", 0.228],
  ["CAGAAGCAAUAUUACGUAGG", -0.872],
  ["CUCGAGCAAUAUUACGAUUC", -3.29],
  ["AUGCAGCAAUAUUACGUCAA", -2.35],
  ["GCGUAGCAAUAUUACGAGAC", -1.13],
  ["UGCCAGCAAUAUUACGGUAG", -1.89]
]}

Query: Could you share which self-splicing fitness (ln) value was measured for "ACAUAGCAAUAUUACGAUGA" ?
Result: -0.75

Query: Could you share which self-splicing fitness (ln) value was measured for "ACCCAGCAAUAUUACGUUGG" ?
Result: -3.6

Query: Could you share which self-splicing fitness (ln) value was measured for "GCGUAGCAAUAUUACGAUGA" ?
Result: -0.962

Query: Could you share which self-splicing fitness (ln) value was measured for "UGUAAGCAAUAUUACGGCAU" ?
Result: -1.48

Query: Could you share which self-splicing fitness (ln) value was measured for "AUAUAGCAAUAUUACGUGUU" ?
Result: -4.26

Query: Could you share which self-splicing fitness (ln) value was measured for "GUCAAGCAAUAUUACGCAUA" ?
Result: -1.58

Query: Could you share which self-splicing fitness (ln) value was measured for "CCCCAGCAAUAUUACGGCUC" ?
Result: -3.43

Query: Could you share which self-splicing fitness (ln) value was measured for "GAGAAGCAAUAUUACGCCGU" ?
Result: -2.18

Query: Could you share which self-splicing fitness (ln) value was measured for "AAGUAGCAAUAUUACGAGCG" ?
Result: -0.709

Query: Could you share which self-splicing fitness (ln) value was measured for "UUAUAGCAAUAUUACGGAUU" ?
Result: -3.1

Query: Could you share which self-splicing fitness (ln) value was measured for "GUCUAGCAAUAUUACGUUCU" ?
Result: -0.494

Query: Could you share which self-splicing fitness (ln) value was measured for "CAAUAGCAAUAUUACGACAA" ?
Result: -3.42

Query: Could you share which self-splicing fitness (ln) value was measured for "UCGCAGCAAUAUUACGUGCA" ?
Result: -2.17

Query: Could you share which self-splicing fitness (ln) value was measured for "CACAAGCAAUAUUACGAUAU" ?
Result: -3.34

Query: Could you share which self-splicing fitness (ln) value was measured for "UUAGAGCAAUAUUACGGCAG" ?
Result: -1.01

Query: Could you share which self-splicing fitness (ln) value was measured for "UUAAAGCAAUAUUACGAGAA" ?
Result: -1.48

Query: Could you share which self-splicing fitness (ln) value was measured for "GUGUAGCAAUAUUACGACAC" ?
Result: -2.68

Query: Could you share which self-splicing fitness (ln) value was measured for "GGAAAGCAAUAUUACGGCUG" ?
Result: -0.471

Query: Could you share which self-splicing fitness (ln) value was measured for "CUAUAGCAAUAUUACGUAAA" ?
Result: -3.63

Query: Could you share which self-splicing fitness (ln) value was measured for "UUAAAGCAAUAUUACGCUGC" ?
Result: -2.18

Query: Could you share which self-splicing fitness (ln) value was measured for "AGUGAGCAAUAUUACGGCUC" ?
Result: -4.11

Query: Could you share which self-splicing fitness (ln) value was measured for "GUCUAGCAAUAUUACGCCGU" ?
Result: -0.884

Query: Could you share which self-splicing fitness (ln) value was measured for "AACAAGCAAUAUUACGACAG" ?
Result: -2.25

Query: Could you share which self-splicing fitness (ln) value was measured for "CUAUAGCAAUAUUACGGGUU" ?
Result: -3.13

Query: Could you share which self-splicing fitness (ln) value was measured for "UAAUAGCAAUAUUACGGAUA" ?
Result: -1.97
